- protocol-description: Peptoid quantity remaining in liver by HPLC-TOF mass spectrometry
- Format: in vivo
- measurement-conditions: liver homogenate
Non-standard residues stand in square brackets, D forms with d. Residues, ends and D or L forms follow the SMILES beside them. N(3-lauroyloxypropyl)Gly = CCCCCCCCCCCC(=O)OCCCNCC(=O)O; N(3-imidazol-1-ylpropyl)Gly = O=C(O)CNCCCn1ccnc1; NHexGly = CCCCCCNCC(=O)O
experimental-readout: % of injected dose remaining in liver (%)
Numbers only; they are read as %.

*Q* Report % of injected dose remaining in liver for CCCCCCCCCCCC(=O)OCCCN(CC(=O)N(CCCOC(=O)CCCCCCCCCCC)CC(=O)N(CCCCCC)CC(=O)N(CCCOC(=O)CCCCCCCCCCC)CC(=O)N(CCCOC(=O)CCCCCCCCCCC)CC(=O)N(CCCCCC)CC(N)=O)C(=O)CNCCCn1ccnc1 [Compound 73] (H-[N(3-imidazol-1-ylpropyl)Gly][N(3-lauroyloxypropyl)Gly][N(3-lauroyloxypropyl)Gly][NHexGly][N(3-lauroyloxypropyl)Gly][N(3-lauroyloxypropyl)Gly][NHexGly]-NH2) please.
*A* 10.58

* * *

- protocol-description: Peptoid quantity remaining in liver by HPLC-TOF mass spectrometry
- Format: in vivo
- measurement-conditions: liver homogenate
Non-standard residues stand in square brackets, D forms with d. Residues, ends and D or L forms follow the SMILES beside them. Gly(N-(3-decanoyloxypropyl)) = CCCCCCCCCC(=O)OCCCNCC(=O)O; N(2-ethylhexyl)Gly = CCCCC(CC)CNCC(=O)O; N(CH(CH2OH)2)Gly = O=C(O)CNC(CO)CO
experimental-readout: % of injected dose remaining in liver (%)
Reply numerically in %, unit not repeated.

*Q* Could you share which % of injected dose remaining in liver value was measured for CCCCCCCCCC(=O)OCCCN(CC(N)=O)C(=O)CN(CCCOC(=O)CCCCCCCCC)C(=O)CN(CC(CC)CCCC)C(=O)CN(CCCOC(=O)CCCCCCCCC)C(=O)CN(CCCOC(=O)CCCCCCCCC)C(=O)CN(CC(CC)CCCC)C(=O)CNC(CO)CO (centres unmarked) [Compound 102] (H-[N(CH(CH2OH)2)Gly][N(2-ethylhexyl)Gly][Gly(N-(3-decanoyloxypropyl))][Gly(N-(3-decanoyloxypropyl))][N(2-ethylhexyl)Gly][Gly(N-(3-decanoyloxypropyl))][Gly(N-(3-decanoyloxypropyl))]-NH2) ?
*A* 0.86

* * *

- Tested on: firefly luciferase
- protocol-description: In vivo firefly luciferase expression after intravenous injection of fLuc mRNA delivery vehicles (IVIS imaging)
- Set-up: species or system female Balb/c mice
- measurement-conditions: formulation recipe D22; fLuc mRNA, intravenous, Balb/c mice
Non-standard residues stand in square brackets, D forms with d. Residues, ends and D or L forms follow the SMILES beside them. *: point of attachment. N(3-lauroyloxypropyl)Gly = CCCCCCCCCCCC(=O)OCCCNCC(=O)O; N(2-decanoyloxyethyl)Gly = CCCCCCCCCC(=O)OCCNCC(=O)O; Gly(N-3-morpholinopropyl) = O=C(O)CNCCCN1CCOCC1; N(2-ethylhexyl)Gly = CCCCC(CC)CNCC(=O)O; N(CH(CH2OH)2)Gly = O=C(O)CNC(CO)CO; For = O=C*
Recorded Total Flux (luciferase expression), one value per entry.

CCCCCCCCCCCC(=O)OCCCN(CC(=O)N(CC(=O)N(CC(=O)N(CCCOC(=O)CCCCCCCCCCC)CC(=O)N(CC(=O)N(CC(N)=O)CC(CC)CCCC)CC(CC)CCCC)CC(CC)CCCC)CC(CC)CCCC)C(=O)CNC(CO)CO (centres unmarked) [Compound 51] (H-[N(CH(CH2OH)2)Gly][N(3-lauroyloxypropyl)Gly][N(2-ethylhexyl)Gly][N(2-ethylhexyl)Gly][N(3-lauroyloxypropyl)Gly][N(2-ethylhexyl)Gly][N(2-ethylhexyl)Gly]-NH2) : 4.42E+09 p/s

*Q* Would you mind telling me what Total Flux (luciferase expression) value was observed for CCCCCCCCCC(=O)OCCN(CC(=O)N(CCOC(=O)CCCCCCCCC)CC(=O)N(CC(=O)N(CCOC(=O)CCCCCCCCC)CC(=O)N(CCOC(=O)CCCCCCCCC)CC(=O)N(CC(N)=O)CC(CC)CCCC)CC(CC)CCCC)C(=O)CN(C=O)CCCN1CCOCC1 (centres unmarked) [Compound 76] (For-[Gly(N-3-morpholinopropyl)][N(2-decanoyloxyethyl)Gly][N(2-decanoyloxyethyl)Gly][N(2-ethylhexyl)Gly][N(2-decanoyloxyethyl)Gly][N(2-decanoyloxyethyl)Gly][N(2-ethylhexyl)Gly]-NH2) ?
*A* 5.54E+09 p/s

* * *

# key: entry, value: SC Flux
- Tested on: luciferase
- protocol-description: Luciferase expression after local (intramuscular or subcutaneous) administration of mRNA
- Type: in vivo
- measurement-conditions: subcutaneous, mRNA 0.01 mpk, 6 hours
Starred links: 1 amine or outer side, 2 acyl side, 3 side chain; linkers in the order of their positions; H or OH if unused. Non-standard residues stand in square brackets, D forms with d. Residues, ends and D or L forms follow the SMILES beside them. *: point of attachment. Gly(N-(3-decanoyloxypropyl)) = CCCCCCCCCC(=O)OCCCNCC(=O)O; N(3-lauroyloxypropyl)Gly = CCCCCCCCCCCC(=O)OCCCNCC(=O)O; N(2-decanoyloxyethyl)Gly = CCCCCCCCCC(=O)OCCNCC(=O)O; Gly(N-(CH2)3O-octanoyl) = CCCCCCCC(=O)OCCCNCC(=O)O; N(3-imidazol-1-ylpropyl)Gly = O=C(O)CNCCCn1ccnc1; Gly(N-3-morpholinopropyl) = O=C(O)CNCCCN1CCOCC1; N(2-ethylhexyl)Gly = CCCCC(CC)CNCC(=O)O; X1 = CCCCC(CC)CSSCCN(CC(=O)[*:2])[*:1]; X2 = CCCCCCC(CCCC)CN(CC(=O)[*:2])[*:1]; X3 = CCCCCCCCSSCCN(CC(=O)[*:2])[*:1]; N(CH(CH2OH)2)Gly = O=C(O)CNC(CO)CO; For = O=C*
Write the answer as a number in p/s, unit excluded.

CCCCCCCCCC(=O)OCCCN(CC(=O)N(CC(=O)N(CC(=O)N(CCCOC(=O)CCCCCCCCC)CC(=O)N(CC(N)=O)CC(CCCC)CCCCCC)CC(CC)CCCC)CC(CCCC)CCCCCC)C(=O)CN(CC(CC)CCCC)C(=O)CNC(CO)CO (centres unmarked) [Compound 61] (H-[N(CH(CH2OH)2)Gly][N(2-ethylhexyl)Gly][Gly(N-(3-decanoyloxypropyl))][X2][N(2-ethylhexyl)Gly][Gly(N-(3-decanoyloxypropyl))][X2]-NH2) : 1.99E+08
CCCCCCCCCC(=O)OCCN(CC(=O)N(CCOC(=O)CCCCCCCCC)CC(=O)N(CC(=O)N(CCOC(=O)CCCCCCCCC)CC(=O)N(CCOC(=O)CCCCCCCCC)CC(=O)N(CC(N)=O)CC(CC)CCCC)CC(CC)CCCC)C(=O)CNCCCn1ccnc1 (centres unmarked) [Compound 79] (H-[N(3-imidazol-1-ylpropyl)Gly][N(2-decanoyloxyethyl)Gly][N(2-decanoyloxyethyl)Gly][N(2-ethylhexyl)Gly][N(2-decanoyloxyethyl)Gly][N(2-decanoyloxyethyl)Gly][N(2-ethylhexyl)Gly]-NH2) : 1.59E+08
CCCCCCCCCCCC(=O)OCCCN(CC(=O)N(CC(=O)N(CC(=O)N(CCCOC(=O)CCCCCCCCCCC)CC(=O)N(CC(=O)N(CC(N)=O)CC(CC)CCCC)CC(CC)CCCC)CC(CC)CCCC)CC(CC)CCCC)C(=O)CNC(CO)CO (centres unmarked) [Compound 51] (H-[N(CH(CH2OH)2)Gly][N(3-lauroyloxypropyl)Gly][N(2-ethylhexyl)Gly][N(2-ethylhexyl)Gly][N(3-lauroyloxypropyl)Gly][N(2-ethylhexyl)Gly][N(2-ethylhexyl)Gly]-NH2) : 2.26E+08
CCCCCCCCSSCCN(CC(=O)N(CCCN1CCOCC1)CC(=O)N(CCSSCCCCCCCC)CC(=O)N(CCCOC(=O)CCCCCCC)CC(=O)N(CCCOC(=O)CCCCCCC)CC(N)=O)C(=O)CN(CCCOC(=O)CCCCCCC)C(=O)CN(C=O)CCCOC(=O)CCCCCCC [Compound 134] (For-[Gly(N-(CH2)3O-octanoyl)][Gly(N-(CH2)3O-octanoyl)][X3][Gly(N-3-morpholinopropyl)][X3][Gly(N-(CH2)3O-octanoyl)][Gly(N-(CH2)3O-octanoyl)]-NH2) : 1.60E+08

The record that follows has no SC Flux shown yet.
*Q* Quick one: SC Flux of CCCCCCCC(=O)OCCCN(C=O)CC(=O)N(CCCOC(=O)CCCCCCC)CC(=O)N(CCSSCC(CC)CCCC)CC(=O)N(CCCN1CCOCC1)CC(=O)N(CCSSCC(CC)CCCC)CC(=O)N(CCCOC(=O)CCCCCCC)CC(=O)N(CCCOC(=O)CCCCCCC)CC(N)=O (centres unmarked) [Compound 133] (For-[Gly(N-(CH2)3O-octanoyl)][Gly(N-(CH2)3O-octanoyl)][X1][Gly(N-3-morpholinopropyl)][X1][Gly(N-(CH2)3O-octanoyl)][Gly(N-(CH2)3O-octanoyl)]-NH2) ?
*A* 3.73E+07
